Entry source: PubChem BioAssay (NCI)

- Tested on: HOP-62 NSCLC
- TEST: NCI tumour cell line growth inhibition, 48 h
Attribute: TGI
ASSAY METRIC: TGI

[[record]]
compound = "CC(=O)n1c(-c2ccc(Cl)c(Cl)c2)cn(-c2ccc(Cl)cc2)c1=O"
reported_result = "43.8 µM"

[[record]]
compound = "O=c1cc(-c2ccc(O)cc2)oc2cc(O)cc(O)c12"
reported_result = "> 100 µM"

[[record]]
compound = "Cc1cc(Cl)ccc1Nc1nc(C(F)(F)F)ccc1C(=O)Nc1cccc(C(F)(F)F)c1"
reported_result = "11.9 µM"

[[record]]
compound = "Cc1nc2nn(C)cc2c(=O)n1/N=C/c1ccccc1"
reported_result = "> 100 µM"

[[record]]
compound = "CC1=C(C)C(=O)C(C2=C(C3=CC(=O)C(C)=C(C)C3=O)C(=O)c3ccccc3C2=O)=CC1=O"
reported_result = "31.8 µM"

[[record]]
compound = "CC/C=C/C(/C=C/C[C@]1(CC)C[C@H](CC)[C@H](CC(=O)O)OO1)CC (stereo partly specified)"
reported_result = "3.5 µM"

[[record]]
compound = "c1cc(C[S+]2CCCC2)oc1C[S+]1CCCC1"
reported_result = "> 100 µM"

[[record]]
compound = "CC1=C(C(=O)Nc2ccccc2C)C(c2ccccc2C)C(C(=O)Nc2ccccc2C)=C(C)N1"
reported_result = "62.8 µM"

[[record]]
compound = "Cn1ncnc1C1c2n[nH]c(=O)c3cc(F)cc(c23)NC1c1ccc(F)cc1 (stereo unspecified)"
reported_result = "> 100 µM"

[[record]]
compound = "CCCCCCCCCCCCCCCCCc1nnc(N)o1"
reported_result = "> 100 µM"

[[record]]
compound = "C=CCC1C2CCC(O[Si](C(C)C)(C(C)C)C(C)C)(C(C(=O)OC)C2)C1O (stereo unspecified)"
reported_result = "> 100 µM"

[[record]]
compound = "COC(=O)CCC(C)[C@H]1CCC2C3C(C[C@H](OC(C)=O)[C@@]21C)[C@@]1(C)CCC2(C[C@H]1C[C@H]3OC(C)=O)OOC1(CCCCC1)OO2 (stereo partly specified)"
reported_result = "8.31 µM"

[[record]]
compound = "Nc1cc(-c2ccccc2)n(C(=O)Nc2ccc(Oc3ccccc3)cc2)n1"
reported_result = "> 100 µM"

[[record]]
compound = "O=S(=O)(N/N=C/c1ccc(Cl)cc1Cl)c1ccccc1"
reported_result = "> 100 µM"

[[record]]
compound = "CCOP(=O)(OCC)C(=C1C=C(C(C)(C)C)C(=O)C(C(C)(C)C)=C1)P(=O)(OCC)OCC"
reported_result = "> 10 µM"

[[record]]
compound = "O=C1c2ccn(CCCCN(CCO)CCO)c2C(=O)c2c1c(O)c1ccccc1c2O"
reported_result = "> 50.5 µM"


###

Listed compounds paired with reported TGI
- Test system: MOLT-4 leukemia
- TEST: NCI tumour cell line growth inhibition, 48 h
ASSAY METRIC: TGI

[[record]]
compound = "Cn1c2ccccc2c2[nH]c3ccccc3c(=O)c21"
reported_result = "> 100 µM"

[[record]]
compound = "CC(=O)C1C(=O)C(=O)N(c2ccc(Br)cc2)C1=O (stereo not given)"
reported_result = "> 100 µM"

[[record]]
compound = "CN(CCO)/N=N/c1nc[nH]c1C(N)=O"
reported_result = "> 100 µM"

[[record]]
compound = "COc1cc2c(Cc3cc(OCc4ccccc4)ccc3N)nccc2c(OC)c1OC"
reported_result = "> 10 µM"

[[record]]
compound = "O=C(O)C1CC2CC(=O)C1C2 (stereo not given)"
reported_result = "> 100 µM"

[[record]]
compound = "CC(Cc1ccc2c(c1)OCO2)N(C)C(=O)C1=CCN(C)CC1 (stereo not given)"
reported_result = "> 100 µM"

[[record]]
compound = "O=C(Cn1c2ccccc2c2ccncc21)N/N=C\\c1ccc2ccccc2c1"
reported_result = "> 100 µM"

[[record]]
compound = "NC(=S)N/N=C/c1ccc(OC(=O)COc2ccccc2Cl)cn1"
reported_result = "> 88.7 µM"

[[record]]
compound = "CC1=NN(c2ccccc2)C(=O)C1N=Nc1ccc(S(N)(=O)=O)cc1 (stereo not given)"
reported_result = "> 100 µM"

[[record]]
compound = "Cc1ccc(Nc2nc(C)c(C(/C=C/c3ccc4c(c3)OCO4)=N/Nc3ccc([N+](=O)[O-])cc3[N+](=O)[O-])s2)c([N+](=O)[O-])c1"
reported_result = "> 100 µM"

[[record]]
compound = "COc1ccc2c(c1OC)C(=O)O[C@@H]2[C@H]1c2c(c(Br)c3c(c2OC)OCO3)CCN1C"
reported_result = "> 100 µM"

[[record]]
compound = "O=C1C(NS(=O)(=O)c2ccccc2)=C(N(Cc2ccccc2)Cc2ccccc2)C(=O)c2ccccc21"
reported_result = "> 100 µM"

[[record]]
compound = "CN(C)c1ncnc2c1ccn2C1OC(CO)C(O)C1O (stereo not given)"
reported_result = "1.95 µM"

[[record]]
compound = "O=C(O)c1cc(=O)c2cc(C(=O)c3cccs3)c(Cl)c(Cl)c2o1"
reported_result = "> 100 µM"

[[record]]
compound = "O=S(=O)(N/N=C/c1ccc(Cl)cc1Cl)c1ccccc1"
reported_result = "> 100 µM"


###

- Tested on: NCI-H226 lung
- TEST: NCI tumour cell line growth inhibition, 48 h
Below: a set of entries, each annotated with reported TGI.
ASSAY METRIC: TGI

[[record]]
molecule = "CC(C)c1cccc(C(C)C)c1NC(=O)C(=O)C1SC(=S)NC1=O (stereo not drawn)"
assay_metric = "TGI"
reported_result = "> 100 µM"

[[record]]
molecule = "O=C(O)CCc1nc2cc3ccccc3cc2[nH]c1=O"
assay_metric = "TGI"
reported_result = "> 100 µM"

[[record]]
molecule = "COC(=O)CCC1(O)C=CC(=O)C=C1"
assay_metric = "TGI"
reported_result = "> 100 µM"


###

- Test system: SNB-19 CNS
- TEST: NCI tumour cell line growth inhibition, 48 h
ASSAY METRIC: TGI

[[record]]
compound = "CCCCCCC(=O)OC[n+]1cccc(-c2c(COC(=O)NC(C)C)c(COC(=O)NC(C)C)c3n2CCC3)c1"
measured_target = "SNB-19 CNS"
assay_metric = "TGI"
reported_result = "> 100 µM"

[[record]]
compound = "COc1ccc(/C=N\\O[Si](C)(C)C(C)(C)C)cc1O[Si](C)(C)C(C)(C)C"
measured_target = "SNB-19 CNS"
assay_metric = "TGI"
reported_result = "33.3 µM"

[[record]]
compound = "O=C1NC(SCc2ccc(F)cc2)=N/C1=C/c1cccc(OCc2ccc(Cl)cc2)c1"
measured_target = "SNB-19 CNS"
assay_metric = "TGI"
reported_result = "> 100 µM"

[[record]]
compound = "Cn1nc(C(=O)N2CC(CCl)c3c2cc([N+](=O)[O-])c2ccccc32)cc1NC(=O)Nc1cc(C(=O)N2CC(CCl)c3c2cc([N+](=O)[O-])c2ccccc32)nn1C (stereo not given)"
measured_target = "SNB-19 CNS"
assay_metric = "TGI"
reported_result = "> 100 µM"

[[record]]
compound = "C/C(=N\\NC(=S)Nc1ccc(Cl)cc1)c1nc2ncccc2[nH]1"
measured_target = "SNB-19 CNS"
assay_metric = "TGI"
reported_result = "> 100 µM"

[[record]]
compound = "C=C(CC)C[C@@H]1C[C@]2(C(=O)OC)c3[nH]c4ccccc4c3CCN2C1=O"
measured_target = "SNB-19 CNS"
assay_metric = "TGI"
reported_result = "> 100 µM"

[[record]]
compound = "CCOC(=O)Oc1ccc2c(c1)c(=O)c1c(NCCCN(CC)CC)ccc3nnn2c31"
measured_target = "SNB-19 CNS"
assay_metric = "TGI"
reported_result = "19.5 µM"

[[record]]
compound = "CC1=C(C)C(=O)C(C2=C(C3=CC(=O)C(C)=C(C)C3=O)C(=O)c3ccccc3C2=O)=CC1=O"
measured_target = "SNB-19 CNS"
assay_metric = "TGI"
reported_result = "25.8 µM"

[[record]]
compound = "Cc1cccc(N=C2NC(=O)C(CC(=O)Nc3ccccc3Cl)S2)c1 (stereo not given)"
measured_target = "SNB-19 CNS"
assay_metric = "TGI"
reported_result = "> 100 µM"

[[record]]
compound = "CCCCCCCCCCCCCCCCCc1nnc(N)o1"
measured_target = "SNB-19 CNS"
assay_metric = "TGI"
reported_result = "> 100 µM"


###

- Test system: M14 melanoma
- TEST: NCI tumour cell line growth inhibition, 48 h
ASSAY METRIC: TGI

[[record]]
compound = "c1ccc(CSC(SCc2ccccc2)c2ccc3c(c2)OCO3)cc1"
reported_result = "> 10 µM"

[[record]]
compound = "O=C(Nc1ccc(S(=O)(=O)Nc2ncccn2)cc1)c1c2ccccc2nc2ccccc12"
reported_result = "> 100 µM"

[[record]]
compound = "CC(=O)Oc1cc(S(=O)(=O)Nc2n[nH]c(N)n2)c(S)cc1Cl"
reported_result = "> 100 µM"

[[record]]
compound = "Cc1ccc(-n2cc(-c3ccc(Cl)cc3)c(C#N)c2N)cc1"
reported_result = "28.7 µM"

[[record]]
compound = "CSc1nc(C)c(CCCl)c(Cl)n1"
reported_result = "> 100 µM"

[[record]]
compound = "O=C1c2c(ccc3c2CCCC3)CC1Cc1ccc2c(c1)CCCC2 (stereo not given)"
reported_result = "> 100 µM"

[[record]]
compound = "CC(=O)C1C(=O)C(=O)N(c2ccc(Br)cc2)C1=O (stereo not given)"
reported_result = "> 100 µM"

[[record]]
compound = "Cc1cccc(N=C2NC(=O)C(CC(=O)Nc3ccccc3Cl)S2)c1 (stereo not given)"
reported_result = "> 100 µM"

[[record]]
compound = "COc1ccc(C=C2C(=O)NC(=O)NC2=O)cc1OCc1ccccc1"
reported_result = "82.5 µg/mL"

[[record]]
compound = "Cc1ccc([N+](=O)[O-])c2c(NCCC[N+](C)(C)[O-])ccnc12"
reported_result = "> 100 µM"

[[record]]
compound = "O=C(NN1C(=O)CSC12CCC(c1ccccc1)CC2)c1[nH]c2ccc(F)cc2c1-c1ccccc1 (stereo not given)"
reported_result = "35.6 µM"

[[record]]
compound = "CC/C=C/C(/C=C/C[C@]1(CC)C[C@H](CC)[C@H](CC(=O)O)OO1)CC (stereo not given in full)"
reported_result = "26.5 µM"

[[record]]
compound = "CN(C)c1ncnc2c1ccn2C1OC(CO)C(O)C1O (stereo not given)"
reported_result = "> 100 µM"

[[record]]
compound = "Cc1cn2c(/C=C3/C(=O)Nc4ccccc43)c(C)nc2s1"
reported_result = "> 100 µM"

[[record]]
compound = "CCOC(=O)C(=O)Nc1cccc(C)c1C"
reported_result = "> 100 µM"

